Entries and their measured Absorbance peak follow.
- Assay Overview: UV-visible absorbance spectroscopy, 15 μM in 90% aqueous, 10% DMSO
- Format: physicochemical
- Test Conditions: pH 6, predominantly neutral/phenolic form
Your answer should be a plain number; it is taken to be in nm.

Recorded results for 3 molecules are shown here.
COC(=O)c1ccccc1-c1c2ccc(=O)cc-2oc2c1ccc1cc(O)ccc12 [Compound 20a]    515
COC(=O)c1ccccc1-c1c2ccc(=O)cc-2oc2c1ccc1cccc(O)c12 [Compound 15a]    525
COC(=O)c1ccccc1-c1c2ccc(=N)cc-2oc2c1ccc1cccc(O)c12 [Compound 15b]    535

Pending molecule:
Value of measured Absorbance peak for the entry COC(=O)c1ccccc1-c1c2ccc(=[N+](C)C)cc-2oc2c1ccc1cccc(O)c12 [Compound 15d] : 570
